Target: T1, Sec8-His (section 8 (Sec8), an antigenic region of CSP-1, tagged with a polyhistidine (His) tag)
T1 construct: also called Sec8-His antigen
T1 chain: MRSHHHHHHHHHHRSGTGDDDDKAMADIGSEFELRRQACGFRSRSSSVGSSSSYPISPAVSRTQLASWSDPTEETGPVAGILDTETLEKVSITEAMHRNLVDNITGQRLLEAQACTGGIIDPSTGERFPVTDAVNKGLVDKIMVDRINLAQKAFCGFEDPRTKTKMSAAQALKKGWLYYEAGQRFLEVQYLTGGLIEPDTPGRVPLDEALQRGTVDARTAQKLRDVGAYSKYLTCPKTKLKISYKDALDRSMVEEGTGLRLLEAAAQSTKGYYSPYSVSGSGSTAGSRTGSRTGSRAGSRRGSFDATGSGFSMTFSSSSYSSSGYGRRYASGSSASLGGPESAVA
Test: BLI (Octet), single shot: antibody on anti-human IgG tips, 24 nM Sec8-His
Value Type: binding result

• humanized anti-CSP-1 antibody, Antibody Number 39 (Table 1) (antibody, human IgG1, V domains shown, also called Antibody 39) VH: EVQLVESGGGLVQPGGSLRLSCAASGFTFSRYGMSWVRQAPGKGLEWVATISIGGTYTYYPDSMKGRFTISRDNSKNTLYLQMNSLRAEDTAVYYCARRGYGNYSYYGMDYWGQGTLVTVSS VL: DIVMTQSALSLPVTLGQSASISCRSSKSLLHSNGITYLYWYLQKPGQSPQLLIYQMSNRASGVPDRFSSSGSGTDFTLKISRVEAEDVGVYYCAQNLELPLTFGQGTKLEIK = binds
• humanized anti-CSP-1 antibody, Antibody Number 49 (Table 1) (antibody, human IgG1, V domains shown, also called Antibody 49) VH: EVQLVESGGGLVQPGGSLRLSCAASGFTFSRYGMSWVRQAPGKRLEWVATISIGGTYTYYPDSMKGRFTISRDNSKNTLYLQMNSLRAEDTAMYYCARRGYGQYSYYGMDYWGQGTLVTVSS VL: DIVMTQSALSNPVTLGQSASISCRSSKSLLHSNGITYLYWYLQKPGQSPQLLIYQMSNRASGVPDRFSSSGSGTDFTLKISRVEAEDVGVYYCAQNLELPLTFGQGTKLEIK = binds
• humanized anti-CSP-1 antibody, Antibody Number 36 (Table 1) (antibody, human IgG1, V domains shown, also called Antibody 36) VH: EVQLVESGGGLVQPGGSLRLSCAASGFTFSRYGMSWVRQAPGKRLEWVATISIGGTYTYYPDSMKGRFTISRDNSKNTLYLQMNSLRAEDTAMYYCARRGYGNYSYYGMDYWGQGTLVTVSS VL: DIVMTQSALSNPVTLGQSASISCRSSKSLLHSNGITYLYWYLQKPGQSPQLLIYQMSNRASGVPDRFSSSGSGTDFTLKISRVEAEDVGVYYCAQNLELPLTFGQGTKLEIK = binds
